Molecular target: recombinant eIF4E (Homo sapiens (Human), UniProt P06730)
Sequence (P06730 whole entry): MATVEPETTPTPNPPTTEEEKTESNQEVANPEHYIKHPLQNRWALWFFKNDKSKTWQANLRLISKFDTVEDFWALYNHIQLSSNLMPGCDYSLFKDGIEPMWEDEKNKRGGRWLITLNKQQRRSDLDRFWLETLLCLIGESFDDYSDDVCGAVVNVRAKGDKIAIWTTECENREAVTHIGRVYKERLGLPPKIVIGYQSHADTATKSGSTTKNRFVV
Assay: Fluorescence polarization competition assay for eIF4E binding potency
Conditions: fluorescence polarization competition, 75 nM recombinant eIF4E, 20 nM EDA-m7GDP-ATTO-550; IC50 class; read-out: elF4E FP
pIC50: −log10 of the molar value.
metric: pIC50

# example entries with known answers
>>> df
                                   compound  metric  readout_value
0  CCc1nc2cnccc2c(=O)n1CCOc1ccc(Cl)cc1-c1cccc(C(=O)O)c1   pIC50   6.00 to 7.30
1  COc1cc(-c2cc(Cl)ccc2OCCn2c(C)nc3cc(C(F)(F)F)c(CN4CCN(C)CC4)c(C#N)c3c2=O)c2scc(C(=O)O)c2n1   pIC50         > 7.30
2  Cc1cc(-c2cc(Cl)ccc2OCCn2c(C)nc3cc(C(F)(F)F)c(OC4CC4)c(C#N)c3c2=O)c2scc(C(=O)O)c2n1   pIC50         > 7.30
3  O=C(O)c1cccc(-c2cc(Cl)ccc2OCCn2cnc3ccccc3c2=O)c1   pIC50         < 6.00

Query :: Output pIC50 of N#Cc1cc2c(=O)n(CCOc3ccc(Cl)cc3-c3ccc(OC(F)(F)F)c(C(=O)O)c3)cnc2cn1
Result :: 6.00 to 7.30

Query :: Output pIC50 of CSc1c(-c2cc(Cl)ccc2OCCn2c(C)nc3cnc(C4CC4)c(C#N)c3c2=O)ccnc1C(=O)O
Result :: 6.00 to 7.30

Query :: Output pIC50 of COC(C)c1ncc2nc(C)n(CCOc3ccc(Cl)cc3-c3cc(C)nc4c(C(=O)O)csc34)c(=O)c2c1C#N (stereo not shown)
Result :: > 7.30
